assayTarget: UniProtKB Q72874
observable: IC50 (nM)
Answer format: numeric, nM implied, no suffix.

COc1ccc(S(=O)(=O)N(CC(C)C)C[C@@H](O)[C@H](Cc2ccccc2)NC(=O)c2coc3ccc(O)cc23)cc1 ... 2050
COc1ccc(S(=O)(=O)N(CC(C)C)C[C@@H](O)[C@H](Cc2ccccc2)NC(=O)c2cc3ccc(O)cc3o2)cc1 ... 2000

Kindly consider the entry below.
Inquiry: API: value(readout= IC50, system= UniProtKB Q72874, query= COc1ccc(S(=O)(=O)N(CC(C)C)C[C@@H](O)[C@H](Cc2ccccc2)NC(=O)c2cc3cc(O)ccc3o2)cn1 )
Reply text: 1980
